Here, each record is paired with measured MIC data.
# Test system: M. tuberculosis strain H37Rv
# TEST METHOD NOTES: EUCAST broth microdilution MIC determination
# Format: cell-based, Mycobacterium tuberculosis
# TEST PARAMETERS: Mycobacterium tuberculosis, H37RV, M. tuberculosis strain H37Rv; lowest concentration without visual growth; read-out: MIC a

COMPOUND	CMP	MIC [µM]
NNC(=O)c1ccncc1 [INH, isoniazid, reference compound]	=	0.0343
COc1ccc2[nH]cc(/C=N/NS(=O)(=O)c3ccccc3)c2c1	=	0.165
O=[N+]([O-])c1ccc(/C=N/NS(=O)(=O)c2ccccc2)cc1	<	0.1
Cc1nnsc1C(=O)N/N=C/c1c(Cl)c2ccccc2oc1=O	<	0.4
COc1cc(/C=N/NC(=O)c2snnc2C)ccc1O	<	0.1
O=[N+]([O-])c1ccccc1/C=N/NS(=O)(=O)c1ccccc1	=	0.305
COc1ccc2c(c1)c(/C=N/NS(=O)(=O)c1ccccc1)cn2C	<	0.4
COc1ccc2c(c1)c(/C=N/NC(=O)c1snnc1C)cn2C	<	0.4
O=S(=O)(N/N=C/C=C/c1ccccc1)c1ccccc1	<	0.1
O=S(=O)(N/N=C/c1c[nH]c2ccc(Cl)cc12)c1ccccc1	=	0.167

###

# Test system: CCL-1 mouse fibroblast cell line
# TEST METHOD NOTES: MTT cytotoxicity assay, CCL-1
# Assay type: cell-based
# TEST PARAMETERS: Mus musculus, Fibroblast; MTT; as assigned in running text; read-out: IC50, mouse fibroblast cells CCL-1
pIC50: −log10 of the molar value.

ENTRY SMILES	TARGET OF ASSAY	pIC50
COc1cc(/C=N/NC(=O)c2snnc2C)ccc1O	CCL-1 mouse fibroblast cell line	3.66

###

Here, each record is paired with measured IC50 data.
# Test system: HEK-293 (human embryonic kidney 293) cells
# TEST METHOD NOTES: MTT cytotoxicity assay, HEK-293
# Type: cell-based
# TEST PARAMETERS: Homo sapiens, HEK293, 72 h, read-out: IC50 (µM) c HEK-293

ENTRY SMILES	TARGET OF ASSAY	IC50, µM
O=S(=O)(N/N=C/c1c[nH]c2ccc(OCc3ccccc3)cc12)c1ccccc1	HEK-293 (human embryonic kidney 293) cells	32.3
COc1ccc(/C=N/NS(=O)(=O)c2ccccc2)cc1OC	HEK-293 (human embryonic kidney 293) cells	47.4
O=S(=O)(N/N=C/c1ccc(Cl)cc1)c1ccccc1	HEK-293 (human embryonic kidney 293) cells	100

All values here come from paper PMC9137698.
